Each entry below carries its reported residual activity.
Measured Target: ADRBK2 (human)
Experiment Summary: radiometric filter-binding kinase assay, Kinase HotSpot
Settings: compound 0.5 µM; ATP 10 µM
Readout: residual activity (%)

O=C1C(Cl)=C(N2C(=O)CCC2=O)C(=O)c2ccccc21 | 103
Cc1nc(-c2ccccc2)c(-c2ccncc2)o1 | 101
N#Cc1c[nH]c2c[nH]/c(=N\Cc3cccnc3)cc2/c1=N\c1ccc(F)c(Cl)c1 | 100
O=C(c1cc2cc(O)ccc2[nH]1)c1cc2cc(O)ccc2[nH]1 | 102

====

Measured Target: PRKG2 (human)
Experiment Summary: radiometric filter-binding kinase assay, Kinase HotSpot
Settings: compound 0.5 µM; ATP 10 µM
Each entry below carries its reported residual activity.
Readout: residual activity (%)

C[C@@H]1CCN(C(=O)CC#N)C[C@@H]1N(C)c1ncnc2[nH]ccc12 | 106
COc1cc(Nc2c(C#N)cnc3cc(OCCCN4CCN(C)CC4)c(OC)cc23)c(Cl)cc1Cl | 109
CN(C)CCCn1cc(C2=C(c3c[nH]c4ccccc34)C(=O)NC2=O)c2ccccc21 | 38.7
c1ccc2c(-c3ccncc3)c[nH]c2c1 | 38.3
CS(=O)(=O)CCNCc1ccc(-c2ccc3ncnc(Nc4ccc(OCc5cccc(F)c5)c(Cl)c4)c3c2)o1 | 107
CN(C)S(=O)(=O)c1ccc2c(c1)/C(=C/c1cc3c([nH]1)CCCC3)C(=O)N2 | 95.9
O=C1NC(=O)c2c1c1c3ccccc3[nH]c1n1cncc21 | 64.1
O=C1C(Cl)=C(N2C(=O)CCC2=O)C(=O)c2ccccc21 | 114
NC(=O)c1cccc(-c2cc(Nc3ccc(OC(F)(F)F)cc3)ncn2)c1 | 96.4
COc1ccc(Cl)cc1NC(=O)Nc1cc(C)nc2ccccc12 | 105

====

Measured Target: JAK1 JH1 catalytic (human)
Experiment Summary: radiometric filter-binding kinase assay, Kinase HotSpot
Settings: compound 0.5 µM; ATP 10 µM
Each entry below carries its reported residual activity.
Readout: residual activity (%)

COc1cc(Nc2c(C#N)cnc3cc(OCCCN4CCN(C)CC4)c(OC)cc23)c(Cl)cc1Cl | 99
COc1ccc(C(=O)Nc2sc3c(c2C(N)=O)CCCC3)cc1OC | 104
Cn1c2ccccc2c2c3c(c4c5ccccc5n(CCC#N)c4c21)CNC3=O | 20.2
CN(C)CCCn1cc(C2=C(c3c[nH]c4ccccc34)C(=O)NC2=O)c2ccccc21 | 88.7
O=C1NC(=O)c2c1c1c3ccccc3[nH]c1n1cncc21 | 102
Cc1cncc2cccc(S(=O)(=O)N3CCCN(C(=O)CN)C[C@H]3C)c12 | 108
COc1ccc(Cl)cc1NC(=O)Nc1cc(C)nc2ccccc12 | 99.3
CS(=O)(=O)CCNCc1ccc(-c2ccc3ncnc(Nc4ccc(OCc5cccc(F)c5)c(Cl)c4)c3c2)o1 | 98
CN(C)S(=O)(=O)c1ccc2c(c1)/C(=C/c1cc3c([nH]1)CCCC3)C(=O)N2 | 66.8
NC(=O)c1cccc(-c2cc(Nc3ccc(OC(F)(F)F)cc3)ncn2)c1 | 98.9
Cc1nc(-c2ccccc2)c(-c2ccncc2)o1 | 103
N#Cc1c[nH]c2c[nH]/c(=N\Cc3cccnc3)cc2/c1=N\c1ccc(F)c(Cl)c1 | 93.6
O=C1C(Cl)=C(N2C(=O)CCC2=O)C(=O)c2ccccc21 | 107
CN(C)c1ccc(/C=C2\C(=O)Nc3ccccc32)cc1 | 105
COc1ccc(S(=O)(=O)N(CCO)c2ccccc2CN(C)C/C=C/c2ccc(Cl)cc2)cc1 | 111
c1ccc2c(-c3ccncc3)c[nH]c2c1 | 109
Cc1cccc(-c2nc(C(C)(C)C)[nH]c2-c2ccc3c(c2)OCO3)n1 | 96.1
CC(C)(C)c1cc(C=C(C#N)C#N)cc(Br)c1O | 107
CCCCc1c(-c2ccc(OC)cc2)[nH]c2nccnc12 | 67.1
N#C/C(=C\c1ccc(O)c(O)c1)C(=O)NCc1ccccc1 | 93.8
Fc1ccc(-c2nc3n(c2-c2ccncc2)CCS3)cc1 | 106
COc1cc2ncnc(Nc3ccc(Oc4ccccc4)cc3)c2cc1OC | 105
CO[C@@H]1[C@H](N(C)C(=O)c2ccccc2)C[C@H]2O[C@]1(C)n1c3ccccc3c3c4c(c5c6ccccc6n2c5c31)C(=O)NC4 | 16.3
O=C(c1cc2cc(O)ccc2[nH]1)c1cc2cc(O)ccc2[nH]1 | 98.7
COc1ccc2c(c1)c(C1=C(c3c[nH]c4ccccc34)C(=O)NC1=O)cn2CCCN(C)C | 100
Ic1cccc(CSc2nnc(-c3ccncc3)o2)c1 | 103
O=C1c2ccccc2-c2nc3nnnn3nc21 | 101
COc1cc2ncnc(Nc3ccc(OCc4ccccc4)cc3)c2cc1OC | 101
COc1ccc2c(c1)/C(=C/c1cnc[nH]1)C(O)=N2 | 83.8
O=C1Nc2ccc(Br)cc2/C1=C\c1cc2c([nH]1)CCCC2 | 99.3

====

Each entry below carries its reported residual activity.
Measured Target: UniProtKB Q13043
Sequence (Q13043 whole entry, looked up): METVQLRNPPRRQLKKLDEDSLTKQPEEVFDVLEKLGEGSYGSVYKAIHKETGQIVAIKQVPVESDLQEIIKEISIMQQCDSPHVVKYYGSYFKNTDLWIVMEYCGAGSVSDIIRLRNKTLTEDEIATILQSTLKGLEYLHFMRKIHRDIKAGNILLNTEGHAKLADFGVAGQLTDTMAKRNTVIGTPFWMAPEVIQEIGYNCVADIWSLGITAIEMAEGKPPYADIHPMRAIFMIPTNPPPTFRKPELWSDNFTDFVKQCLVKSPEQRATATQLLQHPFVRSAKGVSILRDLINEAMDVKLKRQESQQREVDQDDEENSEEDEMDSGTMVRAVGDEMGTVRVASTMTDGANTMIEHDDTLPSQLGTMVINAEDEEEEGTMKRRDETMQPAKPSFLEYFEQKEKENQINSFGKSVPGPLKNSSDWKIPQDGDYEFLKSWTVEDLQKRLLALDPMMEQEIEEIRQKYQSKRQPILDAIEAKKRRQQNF
Experiment Summary: radiometric filter-binding kinase assay, Kinase HotSpot
Settings: compound 0.5 µM; ATP 10 µM
Readout: residual activity (%)

COc1cc2ncnc(Nc3ccc(OCc4ccccc4)cc3)c2cc1OC | 101
O=C1c2ccccc2-c2nc3nnnn3nc21 | 87.8
CC(C)(C)c1cc(C=C(C#N)C#N)cc(Br)c1O | 90.5
CN(C)S(=O)(=O)c1ccc2c(c1)/C(=C/c1cc3c([nH]1)CCCC3)C(=O)N2 | 13.1
COc1ccc(S(=O)(=O)N(CCO)c2ccccc2CN(C)C/C=C/c2ccc(Cl)cc2)cc1 | 94.2
CN(C)CCCn1cc(C2=C(c3c[nH]c4ccccc34)C(=O)NC2=O)c2ccccc21 | 25.1
CO[C@@H]1[C@H](N(C)C(=O)c2ccccc2)C[C@H]2O[C@]1(C)n1c3ccccc3c3c4c(c5c6ccccc6n2c5c31)C(=O)NC4 | 5.58
CS(=O)(=O)CCNCc1ccc(-c2ccc3ncnc(Nc4ccc(OCc5cccc(F)c5)c(Cl)c4)c3c2)o1 | 99.4

====

Measured Target: CDK9 CCNK (human) (UniProt O75909+P50750)
Sequence (O75909 whole entry, looked up): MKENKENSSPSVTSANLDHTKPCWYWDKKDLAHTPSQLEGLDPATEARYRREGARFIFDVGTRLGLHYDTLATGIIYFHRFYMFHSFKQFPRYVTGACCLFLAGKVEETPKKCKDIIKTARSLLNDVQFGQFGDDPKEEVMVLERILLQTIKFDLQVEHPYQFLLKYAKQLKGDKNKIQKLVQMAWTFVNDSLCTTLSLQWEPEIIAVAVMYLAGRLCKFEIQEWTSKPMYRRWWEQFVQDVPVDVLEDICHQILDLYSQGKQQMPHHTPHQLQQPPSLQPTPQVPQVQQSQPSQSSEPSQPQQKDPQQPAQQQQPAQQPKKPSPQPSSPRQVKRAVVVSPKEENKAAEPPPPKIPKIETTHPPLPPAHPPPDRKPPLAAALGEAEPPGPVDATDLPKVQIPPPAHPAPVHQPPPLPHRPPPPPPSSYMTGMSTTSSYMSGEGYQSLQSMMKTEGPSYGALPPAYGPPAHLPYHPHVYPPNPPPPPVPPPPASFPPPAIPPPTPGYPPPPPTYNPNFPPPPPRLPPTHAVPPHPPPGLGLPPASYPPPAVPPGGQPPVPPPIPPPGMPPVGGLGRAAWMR
Sequence (P50750 whole entry, looked up): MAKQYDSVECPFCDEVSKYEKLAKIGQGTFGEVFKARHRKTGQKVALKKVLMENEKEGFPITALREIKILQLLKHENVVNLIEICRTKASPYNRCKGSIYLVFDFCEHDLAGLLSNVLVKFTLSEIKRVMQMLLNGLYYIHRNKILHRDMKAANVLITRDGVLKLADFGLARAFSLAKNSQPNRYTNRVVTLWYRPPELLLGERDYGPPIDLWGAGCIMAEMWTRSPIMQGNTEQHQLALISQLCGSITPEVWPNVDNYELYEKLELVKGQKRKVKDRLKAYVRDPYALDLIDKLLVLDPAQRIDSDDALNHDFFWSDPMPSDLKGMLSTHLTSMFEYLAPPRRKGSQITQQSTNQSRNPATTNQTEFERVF
Experiment Summary: radiometric filter-binding kinase assay, Kinase HotSpot
Settings: compound 0.5 µM; ATP 10 µM
Readout: residual activity (%)

O=C1c2ccccc2-c2n[nH]c3cccc1c23 | 96
CN(C)CCCn1cc(C2=C(c3c[nH]c4ccccc34)C(=O)NC2=O)c2ccccc21 | 60.3
N#C/C(=C\c1ccc(O)c(O)c1)C(=O)NCc1ccccc1 | 102
Cc1cncc2cccc(S(=O)(=O)N3CCCN(C(=O)CN)C[C@H]3C)c12 | 103

====

Measured Target: STK17A (human)
Experiment Summary: radiometric filter-binding kinase assay, Kinase HotSpot
Settings: compound 0.5 µM; ATP 10 µM
Readout: residual activity (%)

O=C1Nc2ccc(Br)cc2/C1=C\c1cc2c([nH]1)CCCC2 | 72.9
Cc1cccc(-c2nc(C(C)(C)C)[nH]c2-c2ccc3c(c2)OCO3)n1 | 84.1
Cc1cncc2cccc(S(=O)(=O)N3CCCN(C(=O)CN)C[C@H]3C)c12 | 93.5
COc1ccc(C(=O)Nc2sc3c(c2C(N)=O)CCCC3)cc1OC | 98.5
COc1ccc(S(=O)(=O)N(CCO)c2ccccc2CN(C)C/C=C/c2ccc(Cl)cc2)cc1 | 102
Ic1cccc(CSc2nnc(-c3ccncc3)o2)c1 | 95.8

====

Measured Target: SRC (human)
Experiment Summary: radiometric filter-binding kinase assay, Kinase HotSpot
Settings: compound 0.5 µM; ATP 10 µM
Please use the following residual activity ranges when assigning a class: low bracket: < 70%; middle bracket: ≥ 70% and < 90%; high bracket: ≥ 90%

CN(C)S(=O)(=O)c1ccc2c(c1)/C(=C/c1cc3c([nH]1)CCCC3)C(=O)N2 | low bracket
CO[C@@H]1[C@H](N(C)C(=O)c2ccccc2)C[C@H]2O[C@]1(C)n1c3ccccc3c3c4c(c5c6ccccc6n2c5c31)C(=O)NC4 | low bracket
COc1cc(Nc2c(C#N)cnc3cc(OCCCN4CCN(C)CC4)c(OC)cc23)c(Cl)cc1Cl | low bracket
Cn1c2ccccc2c2c3c(c4c5ccccc5n(CCC#N)c4c21)CNC3=O | middle bracket
COc1ccc(C(=O)Nc2sc3c(c2C(N)=O)CCCC3)cc1OC | high bracket
COc1cc2ncnc(Nc3ccc(Oc4ccccc4)cc3)c2cc1OC | middle bracket
COc1ccc(Cl)cc1NC(=O)Nc1cc(C)nc2ccccc12 | high bracket

====

Measured Target: TEC (human)
Experiment Summary: radiometric filter-binding kinase assay, Kinase HotSpot
Settings: compound 0.5 µM; ATP 10 µM
Readout: residual activity (%)

O=C1C(Cl)=C(N2C(=O)CCC2=O)C(=O)c2ccccc21 | 101
COc1cc(Nc2c(C#N)cnc3cc(OCCCN4CCN(C)CC4)c(OC)cc23)c(Cl)cc1Cl | 96.1
Fc1ccc(-c2nc3n(c2-c2ccncc2)CCS3)cc1 | 130
Cc1nc(-c2ccccc2)c(-c2ccncc2)o1 | 127
